target: T1, recombinant human IL-36R extracellular domain expressed with a C-terminal myc-myc-hexahistidine tag (human, UniProt Q9HB29 20-337)
T1 construct: also called hIL-36R-MMH; hIL-36R.mmH
T1 sequence (Q9HB29 other isoform, or with tags, fused parts or gaps limits assumed): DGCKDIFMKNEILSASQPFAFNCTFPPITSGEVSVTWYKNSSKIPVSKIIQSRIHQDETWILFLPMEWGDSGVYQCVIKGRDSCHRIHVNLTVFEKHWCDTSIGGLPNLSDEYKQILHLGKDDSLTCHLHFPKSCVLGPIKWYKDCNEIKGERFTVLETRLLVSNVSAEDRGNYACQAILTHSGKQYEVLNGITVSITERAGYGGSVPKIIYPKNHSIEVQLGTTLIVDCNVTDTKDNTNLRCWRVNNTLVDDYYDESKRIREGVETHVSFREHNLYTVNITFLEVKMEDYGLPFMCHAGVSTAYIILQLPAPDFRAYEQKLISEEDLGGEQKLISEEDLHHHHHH
testDetails: SPR (Biacore 4000), mAb captured on anti-human Fc, 25°C
# t½ per record follows
Hi! Could you send only the number? It should be in min, unit omitted.

A selection of reference data follows.
• H4H14700P2 (antibody, human IgG4 S228P, kappa, V domains shown) VH: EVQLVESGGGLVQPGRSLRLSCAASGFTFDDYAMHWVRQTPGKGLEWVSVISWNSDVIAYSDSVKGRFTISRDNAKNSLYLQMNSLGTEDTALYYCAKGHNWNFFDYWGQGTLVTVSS VL: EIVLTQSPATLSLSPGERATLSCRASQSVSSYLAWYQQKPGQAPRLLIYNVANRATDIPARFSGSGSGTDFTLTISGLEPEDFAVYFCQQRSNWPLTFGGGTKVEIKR = 20
• H4H14731P (antibody, human IgG4 S228P, kappa, V domains shown) VH: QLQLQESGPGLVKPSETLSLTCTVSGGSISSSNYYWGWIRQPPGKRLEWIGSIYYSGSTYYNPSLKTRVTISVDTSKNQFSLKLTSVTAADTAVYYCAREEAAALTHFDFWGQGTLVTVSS VL: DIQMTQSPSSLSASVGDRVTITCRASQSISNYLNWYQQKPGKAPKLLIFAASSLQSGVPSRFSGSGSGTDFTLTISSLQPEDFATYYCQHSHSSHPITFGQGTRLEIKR = 34

// switching to the query binder
Lookup result for H4H14758P (antibody, human IgG4 S228P, kappa, V domains shown) VH: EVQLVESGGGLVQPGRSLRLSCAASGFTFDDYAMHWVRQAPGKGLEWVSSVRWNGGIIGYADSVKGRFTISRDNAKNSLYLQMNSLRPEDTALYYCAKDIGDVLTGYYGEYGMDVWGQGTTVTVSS VL: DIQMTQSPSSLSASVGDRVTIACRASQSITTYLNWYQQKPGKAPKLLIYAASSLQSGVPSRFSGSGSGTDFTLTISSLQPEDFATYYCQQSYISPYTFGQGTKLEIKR ; measured t½: 13
